assay: growth modulation of vineyard yeast isolate – strain RM11-1a, OD600, basal, 24 h, primary screen (AID 1177);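 note: cultures grown under basal conditions with no added stressor; test concentration not given here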; settings: S. cerevisiae RM11-1a growth, OD600, 24 h; higher = more signal, called active from +8 up or from −8 down
z-score values, listed per item
Reply with the value as a number alone.

Previously resolved entries follow.
C=CCC(OC(C)=O)[C@@H]1[C@@H](N(Cc2cc3ccccc3o2)C(=O)Cc2ccc(F)cc2)c2cc(OCCCO)ccc2N1C(=O)Cc1ccc2ccccc2c1 (stereo partly drawn); -0.146
COc1ccc([Si](C)(C)[C@@H]2[C@@H](CC(=O)N3CCC[C@H]3CO)O[C@]3(C(=O)N(Cc4cccc(N5C(=O)COc6ccccc65)c4)c4ccccc43)[C@H]2C)cc1; 0.0195

Shifting focus to the compound that follows.
CCOC(=O)C[C@H]1[C@H](OC(=O)c2cc3ccccc3oc2=O)[C@@H](NC(=O)CC(C)C)c2cc(OCCCO)ccc2N1C(=O)c1ccc2ccccc2n1 yielded z-score of 1.44

---

system: Noggin (protein binding on small-molecule microarray); test: small molecules binding Noggin protein – biochemical, 635/667 nm fluorescence, primary screen (AID 1095); settings: 635 nm fluorescence, higher = more signal;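 note: score merges 667 nm feature fluorescence with signal to noise over triplicate slides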
quantity-name: composite z-score

Sample records with composite z-score:
O=C1[C@H]2C=C(I)[C@H](C[C@@H]2OCCOCCO)[C@@]12CO2; 0.513
COCC(=C=CC[C@H](O)c1ccc(OCCO)cc1)CCO; 1.21
CC(C)C(O)C1C=CC2C(=O)N(c3ccccc3)C(=O)C2N1Nc1ccccc1 (stereo not given); 0.948
CCOC(=O)C[C@H]1[C@H](OC(=O)c2ccc(-c3ccccc3)cc2)[C@@H](NC(=O)CC(C)C)c2cc(OCCCO)ccc2N1C(=O)c1ccc2ccccc2n1; 0.481

composite z-score recorded for this compound, CC1CC/C=C\[C@H]2OC34C=CCN(c5ccc(Cl)cc5)C(=O)[C@H]3N(C(C)CO)C(=O)[C@]4(C)C2C(=O)O1 (stereo not given in full) , is -0.603

---

test: viability profiling in MM1S myeloma cells – cell-based, resazurin fluorescence, basal, 24 h, PK04 Diversity Set, profiling panel (AID 1174); details: higher = more signal, called active from +8 up or from −8 down;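 note: MM1S multiple myeloma cell line; test concentration not given here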
Activity calls are given as the source filed them.
quantity-name: z-score

Illustrative cases are given below, each with its answer.
NC(=O)NCC#Cc1ccc2c(c1)[C@]1(C(=O)N2)[C@H](c2ccccc2OCCO)N2[C@H](c3ccccc3)[C@H](c3ccccc3)OC(=O)[C@H]2[C@@H]1C(=O)O; 0.877 (inactive)
CCCCC=C[C@@H](NC(=O)OCc1ccccc1Cl)c1ccccc1; -1.19 (inactive)

// sample COC(=O)[C@@]1(Cc2ccc(OC)cc2)[C@H]2c3cc(C(=O)N4CCCC4)n(CCO)c3C[C@H]2CN1C(=O)c1ccccc1 , its z-score was -2.2 (inactive)

---

tested on: Lefty1; experiment: Lefty1 protein binding to printed compounds – biochemical, small-molecule microarray, 635/667 nm fluorescence, primary screen (AID 1139); conditions: fluorescence 635/667, higher = more signal
Rule: composite z-score under 0.5 gives Condition not met, otherwise Condition met.

See these solved cases before continuing.
O=C1OCCC=C[C@H]2OC34C=CCN(Cn5nnc6ccccc65)C(=O)[C@H]3N(CCCO)C(=O)[C@@H]4C12 (stereo partly drawn); Condition not met
O=C(NCc1ccc(F)cc1)[C@H]1C[C@H]2C(=O)NCC(=O)N2[C@H]1c1ccc(O)cc1; Condition met
CN(C)C(=O)[C@]1(Cc2ccccc2CN=[N+]=[N-])N=C(c2ccc(OCCCO)cc2)O[C@@H]1c1ccccc1; Condition not met
CCCC[C@@H]1C[C@H]1[C@@H](NC(=O)c1cccs1)c1ccccc1C(F)(F)F; Condition not met
Cn1cccc1C(O)C1C=CC2C(=O)N(c3ccccc3)C(=O)C2N1Nc1ccccc1 (stereo not drawn); Condition not met
CC(=O)N1CC2(CC2)CC1c1ccccc1 (stereo not drawn); Condition not met

Please examine the following record next.
In plain terms: is recorded composite z-score at least 0.5 for COCCOC(=O)N1C(=O)[C@@]2(c3cc(C#CC4(O)CCCCCC4)ccc31)[C@H](C(=O)N1CCc3cc(OC)c(OC)cc3C1)[C@H]1C(=O)O[C@H](c3ccccc3)[C@H](c3ccccc3)N1[C@@H]2c1ccc(OCCO)cc1 ?
Condition met
